# tested-on: FGFR3 (UniProt P22607)
# Sequence (P22607 whole entry, looked up): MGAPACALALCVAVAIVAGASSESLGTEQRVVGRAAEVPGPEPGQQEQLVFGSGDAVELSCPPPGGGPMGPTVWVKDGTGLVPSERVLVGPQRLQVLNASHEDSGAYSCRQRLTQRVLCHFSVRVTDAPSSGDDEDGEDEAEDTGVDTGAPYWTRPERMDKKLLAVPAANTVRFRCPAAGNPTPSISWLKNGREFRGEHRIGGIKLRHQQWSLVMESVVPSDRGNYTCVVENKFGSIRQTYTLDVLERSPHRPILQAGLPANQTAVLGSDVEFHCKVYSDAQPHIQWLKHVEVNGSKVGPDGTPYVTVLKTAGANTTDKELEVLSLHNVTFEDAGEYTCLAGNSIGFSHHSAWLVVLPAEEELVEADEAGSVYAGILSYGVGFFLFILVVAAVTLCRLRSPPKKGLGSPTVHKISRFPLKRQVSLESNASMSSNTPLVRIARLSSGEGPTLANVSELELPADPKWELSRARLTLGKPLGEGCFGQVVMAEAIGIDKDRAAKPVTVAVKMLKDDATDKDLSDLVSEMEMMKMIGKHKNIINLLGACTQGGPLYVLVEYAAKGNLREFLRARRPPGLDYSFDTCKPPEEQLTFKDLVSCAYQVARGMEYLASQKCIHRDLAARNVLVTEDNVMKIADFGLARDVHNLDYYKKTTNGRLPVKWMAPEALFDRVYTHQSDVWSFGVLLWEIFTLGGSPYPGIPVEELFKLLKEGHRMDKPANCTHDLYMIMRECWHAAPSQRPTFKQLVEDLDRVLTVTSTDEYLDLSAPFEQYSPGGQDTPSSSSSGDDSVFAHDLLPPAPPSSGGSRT
# measurement-description: phosphorylation enrichment, bacterial display (enrichment ratio); higher = better substrate or ligand; peptides without Tyr show the background;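 also: 11-residue human phosphosite peptides and single-mutation variants displayed on the E. coli surface, counted by deep sequencing, each peptide's frequency after selection divided by its frequency in the unselected input library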;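 also: frequency after pTyr selection over input frequency; kinase dosed for 20-30% of maximal phosphorylation in three min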
Record Criterion met whenever phosphorylation enrichment is at 0.7 or higher; record Criterion not met when lower.

[[record]]
sequence_string = "GLNKDYRMVVN [HINT1_Y94_G93D]"
group = "Criterion not met"

[[record]]
sequence_string = "AGARMYGVLPW [PLP1_Y207_D203G]"
group = "Criterion not met"

[[record]]
sequence_string = "WTAHSYRMGST [ARHGEF7_Y785]"
group = "Criterion not met"


**Q:** Determine whether measured phosphorylation enrichment meets or exceeds 0.7 for QDKDLYPCPGT [RLF_Y671_R668K]
**A:** Criterion met

**Q:** Determine whether measured phosphorylation enrichment meets or exceeds 0.7 for ADDSFYTARSA [ZAP70_Y493_YF]
**A:** Criterion met

* * *

# tested-on: EPHB2 (UniProt P29323)
# Sequence (P29323 whole entry, looked up): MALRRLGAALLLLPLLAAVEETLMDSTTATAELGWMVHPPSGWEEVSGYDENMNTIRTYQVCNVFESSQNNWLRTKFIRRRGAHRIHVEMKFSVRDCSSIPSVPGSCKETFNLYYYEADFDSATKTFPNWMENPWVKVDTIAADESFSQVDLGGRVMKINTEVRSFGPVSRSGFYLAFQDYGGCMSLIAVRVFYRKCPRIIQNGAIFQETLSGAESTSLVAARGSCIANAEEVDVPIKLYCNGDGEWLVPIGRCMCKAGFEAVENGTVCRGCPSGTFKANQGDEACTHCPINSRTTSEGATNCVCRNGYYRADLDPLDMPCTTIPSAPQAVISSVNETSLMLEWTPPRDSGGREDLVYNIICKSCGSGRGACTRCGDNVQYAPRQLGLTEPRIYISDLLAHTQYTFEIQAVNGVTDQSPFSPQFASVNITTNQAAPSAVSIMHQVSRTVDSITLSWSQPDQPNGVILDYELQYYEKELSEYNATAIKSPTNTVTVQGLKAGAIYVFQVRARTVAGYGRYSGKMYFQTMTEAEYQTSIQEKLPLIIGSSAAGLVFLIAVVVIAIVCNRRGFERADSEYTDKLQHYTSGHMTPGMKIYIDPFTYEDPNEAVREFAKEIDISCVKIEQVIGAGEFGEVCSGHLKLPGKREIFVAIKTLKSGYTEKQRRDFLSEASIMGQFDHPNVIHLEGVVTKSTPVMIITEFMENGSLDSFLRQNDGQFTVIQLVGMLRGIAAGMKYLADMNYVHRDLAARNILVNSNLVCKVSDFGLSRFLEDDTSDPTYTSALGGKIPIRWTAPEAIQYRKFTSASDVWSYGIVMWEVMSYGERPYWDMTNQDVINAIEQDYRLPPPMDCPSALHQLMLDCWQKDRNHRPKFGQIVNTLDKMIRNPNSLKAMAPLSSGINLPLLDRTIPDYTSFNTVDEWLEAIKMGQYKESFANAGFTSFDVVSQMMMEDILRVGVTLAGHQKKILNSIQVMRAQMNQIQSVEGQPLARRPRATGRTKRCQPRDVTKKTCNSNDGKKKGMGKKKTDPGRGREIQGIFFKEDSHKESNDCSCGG
# measurement-description: phosphorylation enrichment, bacterial display (enrichment ratio); higher = better substrate or ligand; peptides without Tyr show the background
assay-metric: phosphorylation enrichment
Give the figure by itself; no unit, no explanation.

[[record]]
sequence_string = "FGIAQYCCRMG [LRRK2_Y2023_YF]"
tested_on = "EPHB2 (UniProt P29323)"
number = 6.66

[[record]]
sequence_string = "GGYTCYCDGKK [PROS1_Y266]"
tested_on = "EPHB2 (UniProt P29323)"
number = 0.474

[[record]]
sequence_string = "NTGFFYDLFGG [PTPN11_Y63_D61Y_YF]"
tested_on = "EPHB2 (UniProt P29323)"
number = 0.659


Pending sequence:
**Q:** Looking for the measured phosphorylation enrichment of TAPFNYSFIFK [RAB14_Y8_YF] , can you help?
**A:** 0.692

* * *

# Lookup of reported phosphorylation enrichment keyed by entry
# System: c-Src
# measurement-description: phosphorylation enrichment, bacterial display (enrichment ratio); higher = better substrate or ligand; peptides without Tyr show the background
Give the figure by itself; no unit, no explanation.

[[record]]
sequence_string = "EALDFYGELRT [PTEN_Y155_V158L]"
number = 0.805


**Q:** Looking for the measured phosphorylation enrichment of PIPAAYNRYDQ [CDC73_Y290] , can you help?
**A:** 0.342

**Q:** Looking for the measured phosphorylation enrichment of KFFRVYQGQQP [MUTYH_Y494_V490F] , can you help?
**A:** 0.457

**Q:** Looking for the measured phosphorylation enrichment of TIMTNYNPNFC [ALK_Y1092_D1091N_YF] , can you help?
**A:** 0.533

**Q:** Looking for the measured phosphorylation enrichment of SDTGQYQCLVF [AXL_Y115] , can you help?
**A:** 1.64

**Q:** Looking for the measured phosphorylation enrichment of LPPGTYPSDFT [UNC5B_Y511_A516T] , can you help?
**A:** 0.697

**Q:** Looking for the measured phosphorylation enrichment of PVQDAYQKVVA [HBB_Y131_A129D] , can you help?
**A:** 0.386

**Q:** Looking for the measured phosphorylation enrichment of EQKKFYNATKK [SCN5A_Y1495_M1498T_YF] , can you help?
**A:** 0.554

**Q:** Looking for the measured phosphorylation enrichment of VGSEDYGWDLT [SPTAN1_Y1792_R1794W] , can you help?
**A:** 0.419

**Q:** Looking for the measured phosphorylation enrichment of ERIELYELDKK [PMM2_Y145_F144L] , can you help?
**A:** 0.615

**Q:** Looking for the measured phosphorylation enrichment of PDGREYIYVDP [PDGFRA_Y572_H570R] , can you help?
**A:** 1.77

**Q:** Looking for the measured phosphorylation enrichment of CEETFYTMKVN [MASP2_Y401] , can you help?
**A:** 1.41

**Q:** Looking for the measured phosphorylation enrichment of LSIQCYLRASD [HMGCS2_Y262_L266S] , can you help?
**A:** 0.998

**Q:** Looking for the measured phosphorylation enrichment of IEPVIDVVQRR [ANOS1_Y217_Y217D] , can you help?
**A:** 0.258

**Q:** Looking for the measured phosphorylation enrichment of SFGMVYEGNAR [INSR_Y1038] , can you help?
**A:** 0.966

**Q:** Looking for the measured phosphorylation enrichment of GVTLLCYGRYN [ADGRD1_Y85_Y85C] , can you help?
**A:** 0.97

**Q:** Looking for the measured phosphorylation enrichment of SVVVPYKPPEV [TP53_Y220_E221K] , can you help?
**A:** 0.596
